Recorded values, source ChEMBL document CHEMBL4011584.

assay: Binding affinity to Cy5-labelled-36 base pair double stranded DNA (unknown origin) measured under infrared laser light by microscale thermophoresis
resultType: pEC50
Field pEC50 (float): negative decimal logarithm of the concentration in molar.

COc1cccc2c1C(=O)c1c(O)c3c(c(O)c1C2=O)C[C@@](O)(C(=O)CO)C[C@@H]3O[C@H]1C[C@H](N)[C@H](O)[C@H](C)O1 5.94

Now, please, on to the next compound.
stdin: For the compound `COc1cccc2c1C(=O)c1c(O)c3c(c(O)c1C2=O)C[C@@](O)(/C(CO)=N/OCC(=O)NCCCC[C@H](NC(=O)CO/N=C(\CO)[C@]1(O)Cc2c(O)c4c(c(O)c2[C@@H](O[C@H]2C[C@H](N)[C@H](O)[C@H](C)O2)C1)C(=O)c1c(OC)cccc1C4=O)C(=O)NCCSSc1ccccn1)C[C@@H]3O[C@H]1C[C@H](N)[C@H](O)[C@H](C)O1` , what pEC50 is on record?
stdout: 6.82
